# MEASURED_TARGET: cystine/glutamate transporter (Homo sapiens, UniProt Q9UPY5)
# Construct: endogenous in cells; host or cells: SKOV3 cells treated with 100 uM DEM (the paragraph also says 'DEM treated EL4 cells')
# Sequence (Q9UPY5 1-501): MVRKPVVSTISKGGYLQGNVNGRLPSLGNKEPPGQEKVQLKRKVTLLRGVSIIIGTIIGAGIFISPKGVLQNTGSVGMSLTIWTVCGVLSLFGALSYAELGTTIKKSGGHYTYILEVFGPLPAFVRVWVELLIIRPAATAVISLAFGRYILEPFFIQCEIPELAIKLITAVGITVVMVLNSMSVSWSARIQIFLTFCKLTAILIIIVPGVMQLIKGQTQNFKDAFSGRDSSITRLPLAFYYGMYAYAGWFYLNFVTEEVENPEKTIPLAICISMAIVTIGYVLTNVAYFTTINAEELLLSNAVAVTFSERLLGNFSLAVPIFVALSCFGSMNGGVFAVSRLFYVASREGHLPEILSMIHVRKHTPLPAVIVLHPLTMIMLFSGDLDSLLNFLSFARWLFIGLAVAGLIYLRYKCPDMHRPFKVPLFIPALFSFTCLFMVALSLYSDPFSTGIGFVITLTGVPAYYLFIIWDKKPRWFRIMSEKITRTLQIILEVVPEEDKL
# Sequence (P08195 2-529 partner): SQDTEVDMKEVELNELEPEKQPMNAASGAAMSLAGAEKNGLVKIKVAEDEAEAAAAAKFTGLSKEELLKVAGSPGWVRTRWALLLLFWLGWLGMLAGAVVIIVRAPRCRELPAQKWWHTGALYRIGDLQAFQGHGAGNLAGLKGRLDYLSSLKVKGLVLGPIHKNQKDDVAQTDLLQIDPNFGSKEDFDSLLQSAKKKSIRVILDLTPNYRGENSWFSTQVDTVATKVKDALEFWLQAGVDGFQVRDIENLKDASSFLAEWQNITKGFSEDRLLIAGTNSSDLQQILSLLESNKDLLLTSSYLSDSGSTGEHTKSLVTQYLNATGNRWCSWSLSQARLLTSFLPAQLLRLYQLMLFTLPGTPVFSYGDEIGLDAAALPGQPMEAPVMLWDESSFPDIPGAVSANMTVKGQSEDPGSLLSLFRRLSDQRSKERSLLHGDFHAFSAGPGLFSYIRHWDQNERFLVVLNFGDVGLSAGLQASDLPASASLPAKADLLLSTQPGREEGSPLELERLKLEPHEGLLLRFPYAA
# ASSAY_REMARKS: Inhibition of 3H-L-Glu uptake in DEM treated cells
# Assay type: cell-based
# CONDITION_PARAMETERS: SK-OV-3, 0.5 h; 1 mM agent; SKOV3 cells treated with 100 μM DEM overnight; 30 minutes uptake at room temperature; triplicate; lower = inhibition of transporter; read-out: % of control 3H-Glu uptake
QUANTITY_MEASURED: remaining activity at 1000 µM (%)
Answers are plain numbers, in %.

# annotated cases, reported remaining activity at 1000 µM shown
* N[C@@H](CCCN(CCC(=O)O)C(=O)Cc1ccccc1)C(=O)O | 54.2
* N[C@@H](CCCN(CC(=O)O)C(=O)c1ccc(OCCF)cc1)C(=O)O | 13.3
* N[C@@H](CCCN(CC(=O)O)C(=O)Cc1ccccc1)C(=O)O | 43.3
* N[C@@H](CCCN(CCC(=O)O)C(=O)c1ccc(O)cc1)C(=O)O | 45.4
* N[C@@H](CCCN(CCC(=O)O)C(=O)c1ccc(OCc2ccccc2)cc1)C(=O)O | 12.7
* N[C@@H](CCCN(CCC(=O)O)C(=O)c1ccc(OCCF)cc1)C(=O)O | 10.6

Below are some compounds; for each one, tell me its remaining activity at 1000 µM.
1. N[C@@H](CCCN(CC(=O)O)C(=O)c1ccccc1)C(=O)O
2. CC(=O)N(CCCC[C@H](N)C(=O)O)CCC(=O)O

Return:
1: 37.2; 2: 102

---

What remaining activity at 1000 µM was measured for each of the following?
# MEASURED_TARGET: cystine/glutamate transporter (Homo sapiens, UniProt Q9UPY5)
# Construct: endogenous in cells; host or cells: SKOV3 cells treated with 100 uM DEM (the paragraph also says 'DEM treated EL4 cells')
# ASSAY_REMARKS: Inhibition of 3H-L-Glu uptake in DEM treated cells
# Assay type: cell-based
# CONDITION_PARAMETERS: SK-OV-3, 0.5 h; 1 mM agent; SKOV3 cells treated with 100 μM DEM overnight; 30 minutes uptake at room temperature; triplicate; lower = inhibition of transporter; read-out: % of control 3H-Glu uptake
Answers are plain numbers, in %.

# annotated cases, reported remaining activity at 1000 µM shown
• N[C@@H](CCCN(CC(=O)O)C(=O)c1ccc(O)cc1)C(=O)O = 22.4
• CCOc1ccc(C(=O)N(CCC[C@H](N)C(=O)O)CCC(=O)O)cc1 = 11.6
• Cc1ccc(S(=O)(=O)N(CCC[C@H](N)C(=O)O)CC(=O)O)cc1 = 13.4

Below are some compounds; for each one, tell me its remaining activity at 1000 µM.
1. N[C@@H](CCCN(CCC(=O)O)C(=O)c1ccccc1)C(=O)O
2. N[C@@H](CCCN(CC(=O)O)C(=O)CCc1ccccc1)C(=O)O
3. N[C@@H](CCCN(CC(=O)O)C(=O)c1cccc2ccccc12)C(=O)O
4. CCOc1cccc(C(=O)N(CCC[C@H](N)C(=O)O)CC(=O)O)c1
5. CC(=O)N(CCC[C@H](N)C(=O)O)CCC(=O)O
6. CC(=O)N(CCC[C@H](N)C(=O)O)CC(=O)O

Return:
1: 36; 2: 12.3; 3: 12.4; 4: 39.8; 5: 118; 6: 95.7

---

# MEASURED_TARGET: cystine/glutamate transporter (Homo sapiens, UniProt Q9UPY5)
# Construct: endogenous in cells; host or cells: SKOV3 cells treated with 100 uM DEM (the paragraph also says 'DEM treated EL4 cells')
# Sequence (Q9UPY5 1-501): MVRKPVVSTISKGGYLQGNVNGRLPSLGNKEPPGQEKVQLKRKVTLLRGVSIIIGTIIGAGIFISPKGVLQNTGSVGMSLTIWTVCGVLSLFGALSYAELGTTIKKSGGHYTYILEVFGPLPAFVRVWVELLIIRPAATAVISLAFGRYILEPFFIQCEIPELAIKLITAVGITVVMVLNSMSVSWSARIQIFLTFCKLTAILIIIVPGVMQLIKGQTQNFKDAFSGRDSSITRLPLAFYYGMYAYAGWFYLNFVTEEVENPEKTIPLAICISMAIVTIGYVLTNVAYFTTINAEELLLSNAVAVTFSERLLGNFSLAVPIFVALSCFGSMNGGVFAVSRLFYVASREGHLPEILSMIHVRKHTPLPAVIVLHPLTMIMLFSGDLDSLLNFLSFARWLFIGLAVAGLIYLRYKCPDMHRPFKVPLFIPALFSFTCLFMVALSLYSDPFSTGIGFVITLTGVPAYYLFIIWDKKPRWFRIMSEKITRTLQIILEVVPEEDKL
# Sequence (P08195 2-529 partner): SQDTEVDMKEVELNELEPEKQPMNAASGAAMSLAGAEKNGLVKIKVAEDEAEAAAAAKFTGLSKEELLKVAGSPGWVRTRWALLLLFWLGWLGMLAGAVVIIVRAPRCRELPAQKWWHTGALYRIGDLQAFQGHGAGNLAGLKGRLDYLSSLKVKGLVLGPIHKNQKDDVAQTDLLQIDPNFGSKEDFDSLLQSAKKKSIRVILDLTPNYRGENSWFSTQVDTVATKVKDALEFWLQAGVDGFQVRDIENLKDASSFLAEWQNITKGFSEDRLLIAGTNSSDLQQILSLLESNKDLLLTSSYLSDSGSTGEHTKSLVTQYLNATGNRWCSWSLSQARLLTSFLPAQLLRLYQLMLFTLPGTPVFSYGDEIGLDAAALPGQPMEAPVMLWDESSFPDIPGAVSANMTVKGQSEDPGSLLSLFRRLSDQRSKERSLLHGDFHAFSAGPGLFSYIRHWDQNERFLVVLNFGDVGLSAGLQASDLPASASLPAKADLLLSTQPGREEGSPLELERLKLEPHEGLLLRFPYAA
# ASSAY_REMARKS: Inhibition of 3H-L-Glu uptake in DEM treated cells
# Assay type: cell-based
# CONDITION_PARAMETERS: SK-OV-3, 0.5 h; 1 mM agent; SKOV3 cells treated with 100 μM DEM overnight; 30 minutes uptake at room temperature; triplicate; lower = inhibition of transporter; read-out: % of control 3H-Glu uptake
QUANTITY_MEASURED: remaining activity at 1000 µM (%)
Answers are plain numbers, in %.

# annotated cases, reported remaining activity at 1000 µM shown
• CCCC(=O)N(CCCC[C@H](N)C(=O)O)CC(=O)O = 102
• N[C@@H](CCCN(CC(=O)O)C(=O)OCc1ccccc1)C(=O)O = 16.4
• CCC(C(=O)O)N(CCC[C@H](N)C(=O)O)C(=O)c1ccccc1 (some centres unmarked) = 26.1
• CCc1ccc(C(=O)N(CCC[C@H](N)C(=O)O)CC(=O)O)cc1 = 11.2

Let's switch to this molecule now.
Enquiry: Quote remaining activity at 1000 µM reported for `CCOc1ccc(C(=O)N(CCC[C@H](N)C(=O)O)CC(=O)O)cc1` please.
Return: 17.3
